Provenance of the data: ChEMBL document CHEMBL5113390

# Test system: Bel7402/5-FU
# experiment.notes: Antiproliferative activity against human BEL-7402/5-FU cells overexpressing 14-3-3 eta assessed as reduction in cell viability incubated for 72 hrs by MTT assay
# Assay type: functional, cell-based
parameter.measured: IC50

These recorded examples may help you get a feel for the data.
{"entry.smiles": "COc1ccc(Cn2c(C(=O)O)c(CNCc3ccc(O)c(OC)c3)c3ccc(C)cc32)cc1", "assay.target": "Bel7402/5-FU", "IC50": "> 50 µM"}
{"entry.smiles": "COc1cccc(CNCc2c(C(=O)O)n(Cc3ccc(N)cc3)c3cc(C(C)C)ccc23)c1", "assay.target": "Bel7402/5-FU", "IC50": "> 50 µM"}
{"entry.smiles": "COc1cccc(CNCc2c(C(=O)O)n(Cc3ccc(O)cc3)c3cc(C(C)C)ccc23)c1", "assay.target": "Bel7402/5-FU", "IC50": "> 50 µM"}

Field request: IC50 | item: COc1ccc(Cn2c(C(=O)O)c(CNCc3cccc(O)c3)c3ccc(C)cc32)cc1
> 50 µM
